Data provenance is patent US20250320496A1.

Test system: human ABCB11 mRNA
test_method_notes: ASO treatment of primary human hepatocytes (PHH), ABCB11 mRNA by RT-qPCR normalized to B2M
Assay type: cell-based
run_conditions: primary human hepatocytes, 5 μM ASO, normalized to untreated PHHs (UNT)
Strand notation (5' to 3'): a small letter for the sugar, then the base; units joined by * are phosphorothioate-linked, units joined directly phosphodiester-linked; [ ] holds rarer units or linkages, { } end groups; capitals alone tell only the bases. e = 2'-O-(2-methoxyethyl) (MOE); [5mC] = 5-methylcytosine; d = 2'-deoxy (DNA)
endpoint_label: ABCB11 mRNA FC (5 μM ASO vs. UNT) (fold change)

>>> print(df.to_string())
                                  substance  result_value
0  CO-4013 (antisense eT*eT*eG*eA*eA*eA*eG*e[5mC]*eT*eG*eG*eT*eT*eT*eA*eA*eT*eG*e[5mC]*eA)         1.166
1  CO-4038 (antisense e[5mC]*eT*e[5mC]*eG*eT*eA*eT*eG*eT*e[5mC]*eA*e[5mC]*eT*eG*eA*eA*e[5mC]*eT*eG*eT)         1.701
2  CO-7019 (antisense eA*eA*eG*eT*eG*dA*dG*eG*d[5mC]*dA*eT*d[5mC]*dA*eG*dG*dT*eA*dA*dG*eT*eT*e[5mC]*e[5mC]*eT)         1.284
3  CO-7153 (antisense eA*e[5mC]*e[5mC]*eT*eT*eA*eG*eG*eA*eG*eG*eA*eT*eT*eA*eT*eT*eT*eA*eA*e[5mC]*e[5mC]*eT*e[5mC])         1.409
4  CO-4509 (antisense eT*eG*eG*eA*eT*eG*eT*eA*eG*eA*eT*eG*eA*eA*eT*eG*eG*e[5mC]*eA*eA)         1.233
5  CO-6975 (antisense e[5mC]*eT*eG*eA*eA*eG*eT*eG*eG*eA*eG*eG*eT*eG*eG*eT*eG*eG*eA*eA)          1.34

----------
Measured ABCB11 mRNA FC (5 μM ASO vs. UNT) accompanies every entry in the list below.
System: human ABCB11 mRNA
test_method_notes: ASO treatment of primary human hepatocytes (PHH), ABCB11 mRNA by RT-qPCR normalized to B2M
Assay type: cell-based
run_conditions: primary human hepatocytes, 5 μM ASO, normalized to untreated PHHs (UNT)
Strand notation (5' to 3'): a small letter for the sugar, then the base; units joined by * are phosphorothioate-linked, units joined directly phosphodiester-linked; [ ] holds rarer units or linkages, { } end groups; capitals alone tell only the bases. e = 2'-O-(2-methoxyethyl) (MOE); l = locked nucleic acid (LNA); [5mC] = 5-methylcytosine; d = 2'-deoxy (DNA)
endpoint_label: ABCB11 mRNA FC (5 μM ASO vs. UNT) (fold change)

>>> print(df.to_string())
                                  substance  result_value
0  CO-7099 (eA*eT*e[5mC]*eT*eG*eG*eA*eA*eA*eA*eT*eA*eA*eT*eG*e[5mC]*e[5mC]*eT*eT*eT*e[5mC]*eT; antisense)         0.882
1  CO-4020 (antisense e[5mC]*eA*eT*eG*eT*eA*eT*e[5mC]*eA*eA*eT*e[5mC]*eT*e[5mC]*eT*eT*eA*eG*eA*eG)         1.201
2  CO-4046 (antisense eG*eG*eG*eAeA*eA*eG*eT*eT*eT*eA*eA*eA*eGeGeT*eA*eT*eT*eT)         1.035
3  CO-4483 (antisense eT*e[5mC]*eA*e[5mC]*eA*eA*eA*eT*eA*eG*eA*eT*eT*eG*eA*eG*eG*eG*eT*e[5mC])         1.041
4  CO-6985 (antisense eT*eG*eG*eA*eT*lG*dT*dA*lG*dA*dT*lG*dA*dA*lT*eG*eG*e[5mC]*eA*eA)         1.414
5  CO-6967 (antisense eG*eA*eT*eG*eT*eA*eG*eA*eT*eG*eA*eA*eT*eG*eG*e[5mC]*eA*eA*eG*eG)         1.405
6  CO-3992 (antisense eT*eG*eT*eT*eT*e[5mC]*e[5mC]*eT*eA*eG*eT*eA*e[5mC]*e[5mC]*eA*eA*eG*eA*eA*eT)         1.388
